target: E. coli CsgA (Escherichia coli, UniProt P28307); construct: made in house; host or cells: E. coli NEB 3016 slyD::kan, pET11d; assay: In vitro ThioflavinT assay of CsgA aggregation (CsgA ThT Assay); format: biochemical; details: read-out: CsgA ThT Assay (10 μM CsgA) % Control AUC at 1005 minutes, 25 μM, mean AUC as % of DMSO control; CsgA 10 μM, black plates; compound 25 μM; 1005 minutes
Sequence (P28307 23-151): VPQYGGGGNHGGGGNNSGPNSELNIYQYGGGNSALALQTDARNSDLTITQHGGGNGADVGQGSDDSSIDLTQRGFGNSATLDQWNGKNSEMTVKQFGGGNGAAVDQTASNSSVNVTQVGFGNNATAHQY
measurementKind: remaining activity at 25 µM (%)
Give bare numbers, in %.

These recorded examples may help you get a feel for the data.
In [3]: df
Out[3]:
                                   molecule              measurementkind  testvalue
0  CN(C)C(=O)C1CN(C)S(=O)(=O)c2c(-c3cccc(C(F)(F)F)c3)c(Cc3cccc4ccccc34)cc(=O)n21 (stereo not shown)  remaining activity at 25 µM         92
1  O=C(O)C1CN(CCCO)S(=O)(=O)c2c(-c3cccc(C(F)(F)F)c3)c(Cc3cccc4ccccc34)cc(=O)n21 (stereo not shown)  remaining activity at 25 µM         38
2  C/C=C\c1c(Cc2cccc3ccccc23)c(-c2cccc(C(F)(F)F)c2)c2n(c1=O)C(C(=O)O)CN(C)S2(=O)=O (stereo not shown)  remaining activity at 25 µM         30

Exam item: Please indicate recorded remaining activity at 25 µM of Nc1c(Cc2cccc3ccccc23)c(-c2cccc(C(F)(F)F)c2)c2scc(C(=O)O)n2c1=O measured with E. coli CsgA (Escherichia coli, UniProt P28307).
Marked response: 36

====

Kindly state remaining activity at 25 µM for each of the entries shown.
target: E. coli CsgA (Escherichia coli); construct: made in house; host or cells: E. coli NEB 3016 slyD::kan, pET11d; experiment: In vitro ThioflavinT assay of CsgA aggregation (CsgA ThT Assay); type: biochemical; details: read-out: CsgA ThT Assay (10 μM CsgA) % Control AUC at 1005 minutes, 25 μM (activity range), CsgA 10 μM, black plates; compound 25 μM; 1005 minutes; class symbol

These recorded examples may help you get a feel for the data.
molecule	measurementKind	testValue
CCc1c(Cc2cccc3ccccc23)c(-c2cccc(C(F)(F)F)c2)c2n(c1=O)C(C(=O)O)CN(CCCO)S2(=O)=O (stereo not shown)	remaining activity at 25 µM	31 to 60%
O=C(O)c1c(-c2ccccc2)sc2c(-c3cccc(C(F)(F)F)c3)c(Cc3cccc4ccccc34)cc(=O)n12	remaining activity at 25 µM	> 60%
Cn1c(=O)c2c(nc(CCCCCCN3CC(C(=O)O)n4c(c(-c5cccc(C(F)(F)F)c5)c(Cc5cccc6ccccc56)cc4=O)S3(=O)=O)n2C)n(C)c1=O (stereo not shown)	remaining activity at 25 µM	31 to 60%
CN1CC(C(=O)O)n2c(c(-c3cccc(C(F)(F)F)c3)c(Cc3cccc4ccccc34)c(C(N)=O)c2=O)S1(=O)=O (stereo not shown)	remaining activity at 25 µM	31 to 60%

Dear colleague, could you send me remaining activity at 25 µM for each of the items below? Thanks.
1. O=C(O)C1CN(C(=O)OCc2ccccc2)c2c(-c3cccc(C(F)(F)F)c3)c(Cc3cccc4ccccc34)cc(=O)n21 (stereo not shown)
2. Nc1c(Cc2cccc3ccccc23)c(-c2cccc(C(F)(F)F)c2)c2n(c1=O)C(C(=O)O)CN(C[C@H](O)CO)S2(=O)=O (stereo partly shown)
3. CCCN1CC(C(=O)O)n2c(c(-c3cccc(C(F)(F)F)c3)c(Cc3cccc4ccccc34)c(NCC3CCCC3)c2=O)S1(=O)=O (stereo not shown)
4. Nc1c(Cc2cccc3ccccc23)c(-c2cccc(C(F)(F)F)c2)c2n(c1=O)C(C(=O)O)CO2 (stereo not shown)
5. Nc1c(Cc2cccc3ccccc23)c(-c2cccc(C(F)(F)F)c2)c2n(c1=O)C(C(=O)O)CN(C[C@@H](O)CO)S2(=O)=O (stereo partly shown)
6. CCCCCN1CC(C(=O)O)n2c(c(-c3cccc(C(F)(F)F)c3)c(Cc3cccc4ccccc34)cc2=O)S1(=O)=O (racemic) [Compound 025]
7. CC1(C(=O)O)CNS(=O)(=O)c2c(-c3cccc(C(F)(F)F)c3)c(Cc3cccc4ccccc34)cc(=O)n21 (stereo not shown)
8. O=C(O)CC1CS(=O)(=O)c2c(-c3cccc(C(F)(F)F)c3)c(Cc3cccc4ccccc34)cc(=O)n21 (stereo not shown)

Marked response:
> 60%
> 60%
11 to 31%
31 to 60%
> 60%
31 to 60%
31 to 60%
31 to 60%

Exam item: Please indicate recorded remaining activity at 25 µM of CCN1CC(C(=O)O)n2c(c(-c3cccc(C(F)(F)F)c3)c(Cc3cccc4ccccc34)cc2=O)S1(=O)=O (single isomer, unassigned) [Compound 015a] measured with E. coli CsgA (Escherichia coli).
Marked response: 11 to 31%
